tgt: Recombinant human FcγRIIIa-V158 (human, UniProt P08637 17-208)
Sequence (P08637 17-208 F176V): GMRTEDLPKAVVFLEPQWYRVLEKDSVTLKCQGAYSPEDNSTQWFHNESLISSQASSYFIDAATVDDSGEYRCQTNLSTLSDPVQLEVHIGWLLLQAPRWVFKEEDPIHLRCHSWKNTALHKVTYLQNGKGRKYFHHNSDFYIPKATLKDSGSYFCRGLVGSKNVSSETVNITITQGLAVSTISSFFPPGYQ
test_method_notes: SPR; -kif
metric_name: Kd (nM)
A number alone suffices; assume nM.

Field: example entries. Status: answers known.
human IgG1 antibody specific for protein 4, S239D + R292C/V302C, -Kif (antibody) ASTKGPSVFPLAPSSKSTSGGTAALGCLVKDYFPEPVTVSWNSGALTSGVHTFPAVLQSSGLYSLSSVVTVPSSSLGTQTYICNVNHKPSNTKVDKKVEPKSCDKTHTCPPCPAPELLGGPDVFLFPPKPKDTLMISRTPEVTCVVVDVSHEDPEVKFNWYVDGVEVHNAKTKPCEEQYNSTYRCVSVLTVLHQDWLNGKEYKCKVSNKALPAPIEKTISKAKGQPREPQVYTLPPSRDELTKNQVSLTCLVKGFYPSDIAVEWESNGQPENNYKTTPPVLDSDGSFFLYSKLTVDKSRWQQGNVFSCSVMHEALHNHYTQKSLSLSPGK : 68.6
human IgG1 antibody specific for protein 4, S239D/I332E + T256D/T307Q + R292C/V302C, -Kif (antibody) ASTKGPSVFPLAPSSKSTSGGTAALGCLVKDYFPEPVTVSWNSGALTSGVHTFPAVLQSSGLYSLSSVVTVPSSSLGTQTYICNVNHKPSNTKVDKKVEPKSCDKTHTCPPCPAPELLGGPDVFLFPPKPKDTLMISRDPEVTCVVVDVSHEDPEVKFNWYVDGVEVHNAKTKPCEEQYNSTYRCVSVLQVLHQDWLNGKEYKCKVSNKALPAPEEKTISKAKGQPREPQVYTLPPSRDELTKNQVSLTCLVKGFYPSDIAVEWESNGQPENNYKTTPPVLDSDGSFFLYSKLTVDKSRWQQGNVFSCSVMHEALHNHYTQKSLSLSPGK : 15.1

Next:
Look at this binder and give its reported Kd. human IgG1 antibody specific for protein 4, S239D/S298A + R292C/V302C, -Kif (antibody) ASTKGPSVFPLAPSSKSTSGGTAALGCLVKDYFPEPVTVSWNSGALTSGVHTFPAVLQSSGLYSLSSVVTVPSSSLGTQTYICNVNHKPSNTKVDKKVEPKSCDKTHTCPPCPAPELLGGPDVFLFPPKPKDTLMISRTPEVTCVVVDVSHEDPEVKFNWYVDGVEVHNAKTKPCEEQYNATYRCVSVLTVLHQDWLNGKEYKCKVSNKALPAPIEKTISKAKGQPREPQVYTLPPSRDELTKNQVSLTCLVKGFYPSDIAVEWESNGQPENNYKTTPPVLDSDGSFFLYSKLTVDKSRWQQGNVFSCSVMHEALHNHYTQKSLSLSPGK
41.8
